# assayComment: Absorbance and fluorescence emission spectra of acid and base forms of the dyes
# Assay type: physicochemical
# cond: Table, footnote c
valueKind: Absorbance ratio of acid/base

- compound: "O=C1C=CC2(C=C1)C1=CC(=O)C=CC1=Nc1ccc(O)cc12"
  valueKind: "Absorbance ratio of acid/base"
  readoutNumber: 0.426
- compound: "CC1=CC(=O)C=C(C(C)C)C12C1=CC(=O)C=CC1=Nc1ccc(O)cc12 (stereo not shown)"
  valueKind: "Absorbance ratio of acid/base"
  readoutNumber: 0.377
- compound: "CC1=CC(=O)C=C(C)C12C1=CC(=O)C=CC1=Nc1ccc(O)cc12"
  valueKind: "Absorbance ratio of acid/base"
  readoutNumber: 0.391
- compound: "CC1=CC(=O)C(C)=C(C)C12C1=CC(=O)C=CC1=Nc1ccc(O)cc12 (stereo not shown)"
  valueKind: "Absorbance ratio of acid/base"
  readoutNumber: 0.380
- compound: "O=C1C=CC2=Nc3ccc(O)cc3C3(C=CC(=O)C4=C3CCCC4)C2=C1 (stereo not shown)"
  valueKind: "Absorbance ratio of acid/base"
  readoutNumber: 0.387
- compound: "CC(C)(C)C1=CC2(C=CC1=O)C1=CC(=O)C=CC1=Nc1ccc(O)cc12 (stereo not shown)"
  valueKind: "Absorbance ratio of acid/base"
  readoutNumber: 0.324
- compound: "CC1=C(C)C2(C3=CC(=O)C=CC3=Nc3ccc(O)cc32)C(C)=C(C)C1=O"
  valueKind: "Absorbance ratio of acid/base"
  readoutNumber: 0.388
